# system: heteromeric KV7.2/KV7.3 channels (KCNQ2, KCNQ3) (Homo sapiens, UniProt O43525+O43526)
# assay-notes: Automated patch-clamp (Sophion Qube 384) potency assay against KV7.2/KV7.3 channels
# test-parameters: CHO-K1/Kv7.2/Kv7.3 cells; EC50 from concentration-response of shift in Vhalf, 10 concentrations up to 30 μM; read-out: Kv7.2/7.3 EC50
Criterion: EC50 strictly under 1000 nM. Met: 1.0. Not met: 0.0.

molecule | label-value
O=C(NCc1ccnc(OCC(F)(F)F)c1)N[C@H]1CCCC[C@H]1O [Compound 58] | 0.0
O=C(NCc1ccnc(OCC(F)(F)F)c1)N[C@@H]1CCc2ccccc2C1 [Compound 115] | 1.0
O=C(NCc1cccc(F)c1)NCc1ccnc(OCC(F)(F)F)c1 [Compound 42] | 1.0

Is it true that EC50 reported for CO[C@@H]1CCOc2c(NC(=O)NCc3ccnc(OCC(F)(F)F)c3)cccc21 [Compound 203] is less than 1000 nM?
0.0

Is it true that EC50 reported for O=C(NCc1ccnc(OCC(F)(F)F)c1)NC1CCSc2ccccc21 (stereo not drawn) [Compound 152] is less than 1000 nM?
0.0

Is it true that EC50 reported for O=C(NCc1ccnc(OCC(F)(F)F)c1)N[C@H]1COc2ccccc2C1 [Compound 187] is less than 1000 nM?
0.0

Is it true that EC50 reported for C[C@@H](Oc1cc(CNC(=O)NCCC2(C(F)(F)F)CC2)ccn1)C(F)(F)F [Compound 51] is less than 1000 nM?
1.0

Is it true that EC50 reported for C[C@@H](Oc1cc(CNC(=O)NCC23CC(F)(C2)C3)ncn1)C(F)(F)F [Compound 244] is less than 1000 nM?
0.0

Is it true that EC50 reported for O=C(NCc1ccnc(OCC(F)(F)F)c1)N[C@@H]1COc2ccc(F)cc21 [Compound 165] is less than 1000 nM?
0.0

* * *

# system: heteromeric KV7.2/KV7.3 channels (KCNQ2, KCNQ3) (Homo sapiens, UniProt O43525+O43526)
# Construct: expressed in transfected cells; host or cells: CHO-K1
# assay-notes: Automated patch-clamp (Sophion Qube 384) potency assay against KV7.2/KV7.3 channels
# Assay type: cell-based
# test-parameters: CHO-K1/Kv7.2/Kv7.3 cells; maximal shift in the Vhalf from the top of the curve
Let's look at some compounds and their measured Kv7.2/7.3 ΔV1/2.
Give the value, in units of mV, as a plain number.

structure-smiles | result-units | Kv7.2/7.3 ΔV1/2
O=C(NCc1ccnc(OCC(F)(F)F)c1)N[C@H]1c2ccccc2C[C@@H]1O | mV | 25.23

Look up Kv7.2/7.3 ΔV1/2 for this compound: Cn1ncc(C(F)(F)F)c1COc1cc(CNC(=O)NCCC2(C(F)(F)F)CC2)ccn1
22.48

Look up Kv7.2/7.3 ΔV1/2 for this compound: C[C@@H](NC(=O)NCCC1(C(F)(F)F)CC1)c1ccnc(OCC(F)(F)F)c1
26.28

Look up Kv7.2/7.3 ΔV1/2 for this compound: O=C(NCCC1(C(F)(F)F)CC1)NCc1ccnc(C(F)F)c1
16.81

Look up Kv7.2/7.3 ΔV1/2 for this compound: O=C(NCc1ccnc(OCC(F)(F)F)c1)N[C@@H]1COC[C@H]1Oc1cccc(F)c1
28.1

Look up Kv7.2/7.3 ΔV1/2 for this compound: O=C(NCCC1(C(F)(F)F)CC1)NCc1ccnc(OCC2CC(F)(F)C2)c1
25.72

Look up Kv7.2/7.3 ΔV1/2 for this compound: O=C(NCc1ccnc(OCC(F)(F)F)c1)N[C@@H]1COc2ccccc2C1
34.07

Look up Kv7.2/7.3 ΔV1/2 for this compound: O=C(NCc1ccnc(OCC(F)(F)F)c1)NCC12CC(C(F)(F)F)(C1)C2
20.27
